study system: hPPARα (Homo sapiens, UniProt Q07869)
Construct: expressed in transfected cells; host or cells: HEK-293
Sequence (Q07869 239-466 limits assumed): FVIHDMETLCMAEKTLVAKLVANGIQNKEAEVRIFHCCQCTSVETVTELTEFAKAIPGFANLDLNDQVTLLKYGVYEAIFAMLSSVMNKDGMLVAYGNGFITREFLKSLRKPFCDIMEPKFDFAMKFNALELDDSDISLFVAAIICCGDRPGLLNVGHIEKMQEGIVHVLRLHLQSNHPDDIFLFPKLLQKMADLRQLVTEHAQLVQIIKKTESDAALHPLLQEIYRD
protocol text: Determination of hPPARα activity (GAL4 fusion luciferase reporter in HEK-293 cells)
Format: cell-based
condition context: compound concentration 50 μM
Reported PPARα values for the following molecules.
Form rule: numeric answer, no unit written next to it.

{"columns": ["molecule", "PPARα"],
 "data": [
  ["CCOC(Cc1ccc(NCCCN2CCSc3ccccc32)cc1)C(=O)O (centres unmarked) [Example 27]", 4.3],
  ["CCOC(Cc1ccc(NCCCN2CCOc3cc(F)ccc32)cc1)C(=O)O (centres unmarked) [Example 18]", 4.4],
  ["CCOC(Cc1ccc(NCCCN2CCOc3ccccc32)cc1)C(=O)O (centres unmarked) [Example 3]", 4.7],
  ["CCOC(Cc1ccc(NCc2ccc(OCCCN3CCOc4ccccc43)cc2)cc1)C(=O)O (centres unmarked) [Example 23]", 4.2]
]}

Now consider a different molecule.
Given item CCCCCCCN(CC(=O)N1CCOc2ccccc21)Cc1ccc(CC(OCC)C(=O)O)cc1 (centres unmarked) [Example 9] , the value recorded as its PPARα is 4.6
